# Experimental system: T1, HLA-DP4 molecule DP401 (DPA1*0103/DPB1*0401) (human), P20036
# T1 chain 1: not shown
# T1 chain 2: not shown
# Assay procedure: direct binding ELISA, 10^-6 M peptide
Each record is given Satisfied if its reported RF (fluorescence with DP4/without DP4) is strictly below 8. Records at or above 8 are given Not satisfied.

binder="PKYVKQNTLKLAT (modifications not checked) [bHA 306-318]" label=Satisfied
binder="RELWWVFYAGDRALEEPHAE (modifications not checked) [bUL21 283-302]" label="Not satisfied"
binder="GPGAPADVQYDLYLNVANRR (modifications not checked) [bIL3 127-146]" label="Not satisfied"

Strictly below 8: is that where RF (fluorescence with DP4/without DP4) of GVQIVRQIRSGERFLKIWSQ (modifications not checked) [bNS-p2] sits?
Satisfied

Strictly below 8: is that where RF (fluorescence with DP4/without DP4) of IAFNSGMEPGVVAEKV (modifications not checked) [bMT 451-466] sits?
Satisfied
